Target: T1, NK1 receptor (Homo sapiens, UniProt P25103)
T1 chain: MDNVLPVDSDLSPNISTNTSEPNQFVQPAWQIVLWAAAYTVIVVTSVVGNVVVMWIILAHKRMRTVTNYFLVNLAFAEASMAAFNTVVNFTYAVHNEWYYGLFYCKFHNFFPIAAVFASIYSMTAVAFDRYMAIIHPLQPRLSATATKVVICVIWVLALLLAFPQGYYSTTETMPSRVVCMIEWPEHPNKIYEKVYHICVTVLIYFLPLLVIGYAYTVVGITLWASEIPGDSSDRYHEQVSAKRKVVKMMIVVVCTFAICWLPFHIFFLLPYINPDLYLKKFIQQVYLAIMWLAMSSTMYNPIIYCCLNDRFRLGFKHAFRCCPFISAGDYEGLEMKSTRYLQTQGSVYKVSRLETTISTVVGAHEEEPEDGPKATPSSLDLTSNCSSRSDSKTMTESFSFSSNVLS
Assay: [3H]-Septide displacement
Non-standard residues stand in square brackets, D forms with d. No end group written: not given here. NMeL = CN[C@@H](CC(C)C)C(=O)O

{"columns": ["BINDER", "RESULT UNITS", "Ki"],
 "data": [
  ["DRFVGLM-NH2 [[Arg5]-NKA(4-10)]", "nM", 8.3],
  ["DRFVG[NMeL]M-NH2 (N-terminus assumed; SMILES CSCC[C@H](NC(=O)[C@H](CC(C)C)N(C)C(=O)CNC(=O)[C@@H](NC(=O)[C@H](Cc1ccccc1)NC(=O)[C@H](CCCNC(=N)N)NC(=O)[C@@H](N)CC(=O)O)C(C)C)C(N)=O) [[Arg5,MeLeu9]-NKA(4-10)]", "nM", 20.9],
  ["DKFVG[NMeL]M-NH2 [[Lys5,MeLeu9]-NKA(4-10)]", "nM", 50.1]
]}
